We begin with a simple list: items and their reported EC50.
target: BK receptors in human ciliary muscle cells (h-CM) (Homo sapiens, UniProt P30411); construct: h-CM cells expressing BK receptors were seeded; endogenous in cells; host or cells: human ciliary muscle (h-CM) cells; assay: Functional assay measuring [Ca2+]i mobilization (FLIPR) in h-CM cells; type: cell-based; details: class symbols (in μM), read-out: CaM (EC50)
Sequence (P30411 whole entry): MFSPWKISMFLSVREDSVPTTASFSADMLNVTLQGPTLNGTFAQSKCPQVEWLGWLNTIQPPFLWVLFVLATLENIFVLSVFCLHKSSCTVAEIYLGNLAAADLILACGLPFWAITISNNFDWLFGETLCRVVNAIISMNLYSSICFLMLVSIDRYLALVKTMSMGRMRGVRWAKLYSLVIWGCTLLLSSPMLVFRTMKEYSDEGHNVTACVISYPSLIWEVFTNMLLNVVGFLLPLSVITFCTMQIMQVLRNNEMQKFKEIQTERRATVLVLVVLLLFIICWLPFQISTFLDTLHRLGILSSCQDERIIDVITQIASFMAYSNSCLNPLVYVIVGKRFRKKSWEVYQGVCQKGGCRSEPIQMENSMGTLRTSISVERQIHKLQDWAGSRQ

Q: What value of EC50 has been reported for the following molecule? COC(=O)c1ccc(CCC(=O)NCC(=O)N(C)c2ccc(Cl)c(COc3cccc4c3nc(OC)n4Cc3ccccn3)c2Cl)cc1 [Compound 37]
Result: < 0.1 µM

Q: What value of EC50 has been reported for the following molecule? CNC(=O)CN1CCN(CC(=O)NCC(=O)N(C)c2ccc(Cl)c(COc3cccc4c3nc(OC)n4Cc3ccccn3)c2Cl)CC1 [Compound 53]
Result: 0.1 to 1 µM

Q: What value of EC50 has been reported for the following molecule? CNC(=O)N1CCN(CCCC(=O)NCC(=O)N(C)c2ccc(Cl)c(COc3cccc4c3nc(OC)n4Cc3ccccn3)c2Cl)CC1 [Compound 12]
Result: < 0.1 µM

All values here come from patent US8252793B2.
